Experiment: in vivo
Set-up: species or system female Fischer rats
Details: rat, iv, Blood, distribution of radioactivity
Method: DISTRIBUTION OF RADIOACTIVITY (% INJECTED DOSE/GRAM OF TISSUE) IN FASTED RATS AT VARIOUS TIMES AFTER INTRAVENOUS ADMINISTRATION OF 15-(p-[^125 I]IODOPHENYL)-3,3-DIMETHYLPENTADECANOIC ACID (DMIPP) Mean and range values for five (5, 30 and 60 min) or four (2, 4 and 8 h) female Fischer rats. Other tissues that were analyzed include spleen, (% INJECTED DOSE/ORGAN OF TISSUE) IN FASTED Time after injection; Percent injected dose/organ (range)
MEASURED_QUANTITY: tissue uptake at 2 h (%ID/g)
Expressed in %ID/g, but write only the number.

Enquiry: Output measured tissue uptake at 2 h for this item: `CC(C)(CCCCCCCCCCCCc1ccc(I)cc1)CC(=O)O`
Return: 0.35
